test: recombinant UMI read abundance after kanamycin selection (control-corrected) (log10(CPM+1)); higher = more efficient recombination; extreme values may be limits of the assay; sequences stand for … in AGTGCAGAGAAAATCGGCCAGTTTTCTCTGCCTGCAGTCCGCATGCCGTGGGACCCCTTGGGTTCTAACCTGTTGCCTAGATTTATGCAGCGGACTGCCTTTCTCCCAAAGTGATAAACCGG…AGGTTGGTTTCACT; site = the 11-nt donor;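 further: IS621 bridge recombinase in Escherichia coli cells against a fixed T5 target plasmid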
MEASURED PARAMETER: recombinant UMI read abundance (log10)

ACATCTACATGGACCGGTTTTCCCGGTAATCCGTATTTGAG (site ACATCTACTCG) ... 0.0217
GTATGCACATGGACCGGTTTTCCCGGTAATCCGTATTTGAA (site GTATGCACTTG) ... 0.0145
TGCTATGCATGGACCGGTTTTCCCGGTAATCCGTATTTGGT (site TGCTACGCTAC) ... 0.0173
GCCTTAGCATGGACCGGTTTTCCCGGTAATCCGTATTTGCC (site GCCTTAGCTGG) ... 0
GGTACGTCATGGACCGGTTTTCCCGGTAATCCGTATTTGTG (site GGTACGTCTCA) ... 0.338
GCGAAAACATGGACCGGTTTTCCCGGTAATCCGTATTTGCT (site GGGAAAACTAG) ... 0
CTATGATCATGGACCGGTTTTCCCGGTAATCCGTATTTGCA (site CTATGATCTTG) ... 2.62
TTAGTTGCATGGACCGGTTTTCCCGGTAATCCGTATTTGTG (site TTAGGTGCTCA) ... 0.0142
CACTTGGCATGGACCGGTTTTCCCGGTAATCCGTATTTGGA (site AACTTGGCTTC) ... 0.00381
CGCTCATCATGGACCGGTTTTCCCGGTAATCCGTATTTGGT (site CGATCATCTAG) ... 0.393
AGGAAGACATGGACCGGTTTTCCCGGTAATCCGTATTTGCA (site AGAAAGACTTG) ... 2.32
CTGCGACCATGGACCGGTTTTCCCGGTAATCCGTATTTGCT (site CTGCTACCTAG) ... 0
ATCTACACATGGACCGGTTTTCCCGGTAATCCGTATTTGCT (site TTCTACACTAG) ... 2.05
TATTTGTCATGGACCGGTTTTCCCGGTAATCCGTATTTGTG (site TATTTGACTCA) ... 0.0169
GAGCTCACATGGACCGGTTTTCCCGGTAATCCGTATTTGAC (site GAGCTCACTAT) ... 1
GGGTGTGCATGGACCGGTTTTCCCGGTAATCCGTATTTGGC (site GGGTGTGCTGC) ... 3
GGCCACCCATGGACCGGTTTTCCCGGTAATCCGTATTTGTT (site GGGCACCCTAA) ... 0.0781
TTTCCTCCATGGACCGGTTTTCCCGGTAATCCGTATTTGCG (site TTTCCTCCTCG) ... 0.0281
